- Test system: Zika virus NS2B-NS3 protease
- Method Description: Primary screen GU AMC qHTS for Zika virus inhibitors (AID 1347154);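 note: 0% = no-inhibitor control and -100% = no-enzyme control; nearly all actives have a fitted effect of over 70% in size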
- Particulars: Zika NS2B-NS3 unlinked protease, AMC fluorogenic substrate; series mostly up to 54.1 µM
Results filed as inconclusive are left out. Active and inactive are the calls of the source. Calls come from the whole dose curve; as a rule, active = well fitted inhibition curve with a large enough effect; inconclusive = small, poorly fitted or top-dose-only effect; inactive = flat fitted curve, though single readings scatter.
Readout Type: activity change, negative = inhibition

C[C@H](N)Cc1c[nH]c2ccc(O)cc12 = inactive
C/C(O)=C(/C#N)C(=O)Nc1cc(Br)ccc1Br = inactive
S=C=Nc1cccc(C2(N3CCCCC3)CCCCC2)c1 = inactive
CC(C)=CCCN1CCC(NC(=O)C(O)(c2ccccc2)C2CCCC2)CC1 (stereo unspecified) = inactive
CCC(Oc1ccc(Cl)cc1)C(=O)OC1CC2CCC(C1)N2C (stereo unspecified) = inactive

-- ask What measured activity change, negative = inhibition goes with `COc1ccc(CCN)cc1` ?
-- reply inactive

-- ask Value lookup for activity change, negative = inhibition; key = `O=C(CCCN1CCC2(CC1)C(=O)N(Cc1cccc(F)c1)CN2c1ccccc1)c1ccc(F)cc1`
-- reply inactive

-- ask // returns reported activity change, negative = inhibition for input `Cc1o[nH]c(=O)c1C[C@H](N)C(=O)O`
-- reply inactive

-- ask Data request, read-out activity change, negative = inhibition, for `CC(C)C[C@H](NC(=O)[C@H](Cc1ccccc1)NC(=O)CNC(=O)[C@H](CO)NC(=O)[C@@H](N)Cc1ccc(O)cc1)C(=O)N[C@H](C(=O)O)[C@H](C)O`
-- reply 10.8% [at 6.83 µM] (inactive)

-- ask Return reported activity change, negative = inhibition; argument: `Cc1o[nH]c(=O)c1C[C@@H](N)C(=O)O`
-- reply inactive

-- ask Look up activity change, negative = inhibition: `CCCCC[C@@H](/C=C/C=C\CCCCCCCC(=O)O)OO`
-- reply 3.22% [at 0.59 µM] (inactive)

Origin of values: PubChem BioAssay (NCATS)
